Hi there, I'd appreciate the recorded viability, T/C for every entry that follows.
system: DU-145 multicell spheroids with HUVEC/MSC, viability; assay: Anticancer human tumor DU-145 cell line growth inhibition [IpAb]; settings: second compound 0.01 µM; first compound 3.16 µM; active compounds read low
Number in %, nothing else.

Ask: # return recorded viability, T/C for entry C=CCn1c(=O)c2cnc(Nc3ccc(N4CCN(C)CC4)cc3)nc2n1-c1cccc(C(C)(C)O)n1 + CCN1CCN(Cc2ccc(Nc3ncc(F)c(-c4cc(F)c5nc(C)n(C(C)C)c5c4)n3)nc2)CC1
Result: 10.1

Ask: # return recorded viability, T/C for entry Cn1nccc1Nc1nccc(-c2ccn(C(CO)c3ccc(Cl)c(F)c3)c(=O)c2)n1 (configuration not stated) + CCN1CCN(Cc2ccc(Nc3ncc(F)c(-c4cc(F)c5nc(C)n(C(C)C)c5c4)n3)nc2)CC1
Result: 103

Ask: # return recorded viability, T/C for entry C=CC(=O)N1CCN(c2nc(=O)n(-c3c(C)ccnc3C(C)C)c3nc(-c4c(O)cccc4F)c(F)cc23)C(C)C1 (configuration not stated) + CCN1CCN(Cc2ccc(Nc3ncc(F)c(-c4cc(F)c5nc(C)n(C(C)C)c5c4)n3)nc2)CC1
Result: 86.1

Ask: # return recorded viability, T/C for entry Cc1nc(NC(=O)N2CCCC2C(N)=O)sc1-c1ccnc(C(C)(C)C(F)(F)F)c1 (configuration not stated) + CCN1CCN(Cc2ccc(Nc3ncc(F)c(-c4cc(F)c5nc(C)n(C(C)C)c5c4)n3)nc2)CC1
Result: 19.4

Ask: # return recorded viability, T/C for entry CC1(C)CCC(CN2CCN(c3ccc(C(=O)NS(=O)(=O)c4ccc(NCC5CCOCC5)c([N+](=O)[O-])c4)c(Oc4cnc5[nH]ccc5c4)c3)CC2)=C(c2ccc(Cl)cc2)C1 + CCN1CCN(Cc2ccc(Nc3ncc(F)c(-c4cc(F)c5nc(C)n(C(C)C)c5c4)n3)nc2)CC1
Result: 70.2

Ask: # return recorded viability, T/C for entry Cn1ncc(Cl)c1-c1cc(C(=O)NC(CN)Cc2cccc(F)c2)sc1Cl (configuration not stated) + CCN1CCN(Cc2ccc(Nc3ncc(F)c(-c4cc(F)c5nc(C)n(C(C)C)c5c4)n3)nc2)CC1
Result: 13.7

Ask: # return recorded viability, T/C for entry CCCS(=O)(=O)Nc1ccc(F)c(C(=O)c2c[nH]c3ncc(-c4ccc(Cl)cc4)cc23)c1F + CCN1CCN(Cc2ccc(Nc3ncc(F)c(-c4cc(F)c5nc(C)n(C(C)C)c5c4)n3)nc2)CC1
Result: 106

====

system: DU-145 multicell spheroids with HUVEC/MSC, viability; assay: Anticancer human tumor DU-145 cell line growth inhibition [IpAb]; conditions: second compound 0.316 µM; first compound 0.3 µM; active compounds read low;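 also: spheroids exposed to agents for seven days before measurement; percent of DMSO vehicle control viability so 100% = untreated level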
Hi there, I'd appreciate the recorded viability, T/C for every entry that follows.
Number in %, nothing else.

Ask: # return recorded viability, T/C for entry CC(C)(C)c1cnc(CSc2cnc(NC(=O)C3CCNCC3)s2)o1 + CC(C)NCC(C(=O)N1CCN(c2ncnc3c2C(C)CC3O)CC1)c1ccc(Cl)cc1
Result: 8.51

Ask: # return recorded viability, T/C for entry CC(=O)c1c(C)c2cnc(Nc3ccc(N4CCNCC4)cn3)nc2n(C2CCCC2)c1=O + CC(C)NCC(C(=O)N1CCN(c2ncnc3c2C(C)CC3O)CC1)c1ccc(Cl)cc1
Result: 54.7

Ask: # return recorded viability, T/C for entry CC(C)(C)c1cnc(CSc2cnc(NC(=O)C3CCNCC3)s2)o1 + CCN1CCN(Cc2ccc(Nc3ncc(F)c(-c4cc(F)c5nc(C)n(C(C)C)c5c4)n3)nc2)CC1
Result: 7.83

Ask: # return recorded viability, T/C for entry Cn1cnc2c(F)c(Nc3ccc(Br)cc3Cl)c(C(=O)NOCCO)cc21 + CC(C)NCC(C(=O)N1CCN(c2ncnc3c2C(C)CC3O)CC1)c1ccc(Cl)cc1
Result: 33.1

Ask: # return recorded viability, T/C for entry CC(=O)c1c(C)c2cnc(Nc3ccc(N4CCNCC4)cn3)nc2n(C2CCCC2)c1=O + CCN1CCN(Cc2ccc(Nc3ncc(F)c(-c4cc(F)c5nc(C)n(C(C)C)c5c4)n3)nc2)CC1
Result: 66.6

Ask: # return recorded viability, T/C for entry Cn1cnc2c(F)c(Nc3ccc(Br)cc3Cl)c(C(=O)NOCCO)cc21 + CCN1CCN(Cc2ccc(Nc3ncc(F)c(-c4cc(F)c5nc(C)n(C(C)C)c5c4)n3)nc2)CC1
Result: 45.9

====

System: DU-145 multicell spheroids with HUVEC/MSC, viability
Test: Anticancer human tumor DU-145 cell line growth inhibition [IpAb]; active = viability on the fitted dose curve at most 10% of control; inactive = the rest;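 also: spheroids exposed to agents for seven days before measurement; percent of DMSO vehicle control viability so 100% = untreated level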
Conditions: second compound 3.16 µM; first compound 0.316 µM
Method: Combinatorial screen of targeted agents with ipatasertib and abemaciclib in multi-cell type tumor spheroids […] Compounds. […] If the clinical Cmax for an agent had not been determined, the highest concentration tested was 10 microM. NCI60 Cell Culture. […] The optimal seeding densities for each of the cell lines at each time point assessed were determined prior to performing the concentration response studies. […]
Pick one: True (active), False (inactive)

Ask: Lab log entry: COc1c(OCCCN2CCOCC2)ccc2c3n(c(=NC(=O)c4cnc(N)nc4)nc12)CCN3 + CC(C)NCC(C(=O)N1CCN(c2ncnc3c2C(C)CC3O)CC1)c1ccc(Cl)cc1 — outcome as called in the assay?
Result: True

Ask: Lab log entry: CC1(C)CCC(CN2CCN(c3ccc(C(=O)NS(=O)(=O)c4ccc(NCC5CCOCC5)c([N+](=O)[O-])c4)c(Oc4cnc5[nH]ccc5c4)c3)CC2)=C(c2ccc(Cl)cc2)C1 + CC(C)NCC(C(=O)N1CCN(c2ncnc3c2C(C)CC3O)CC1)c1ccc(Cl)cc1 — outcome as called in the assay?
Result: False

Ask: Lab log entry: CCCS(=O)(=O)Nc1ccc(F)c(C(=O)c2c[nH]c3ncc(-c4ccc(Cl)cc4)cc23)c1F + CC(C)NCC(C(=O)N1CCN(c2ncnc3c2C(C)CC3O)CC1)c1ccc(Cl)cc1 — outcome as called in the assay?
Result: False

====

test system: DU-145 multicell spheroids with HUVEC/MSC, viability; test: Anticancer human tumor DU-145 cell line growth inhibition [IpAb]; settings: second compound 3.16 µM; first compound 0.316 µM; active compounds read low;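 also: spheroids exposed to agents for seven days before measurement; percent of DMSO vehicle control viability so 100% = untreated level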
measuredProperty: viability, T/C (%)
Number in %, nothing else.

Ask: # return recorded viability, T/C for entry Cn1nccc1Nc1nccc(-c2ccn(C(CO)c3ccc(Cl)c(F)c3)c(=O)c2)n1 (stereo not given) + CC(C)NCC(C(=O)N1CCN(c2ncnc3c2C(C)CC3O)CC1)c1ccc(Cl)cc1
Result: 19.3

Ask: # return recorded viability, T/C for entry Cn1ncc(Cl)c1-c1cc(C(=O)NC(CN)Cc2cccc(F)c2)sc1Cl (stereo not given) + CC(C)NCC(C(=O)N1CCN(c2ncnc3c2C(C)CC3O)CC1)c1ccc(Cl)cc1
Result: 21.7

Ask: # return recorded viability, T/C for entry Cc1nc(NC(=O)N2CCCC2C(N)=O)sc1-c1ccnc(C(C)(C)C(F)(F)F)c1 (stereo not given) + CC(C)NCC(C(=O)N1CCN(c2ncnc3c2C(C)CC3O)CC1)c1ccc(Cl)cc1
Result: 14.1

Ask: # return recorded viability, T/C for entry C=CC(=O)N1CCN(c2nc(=O)n(-c3c(C)ccnc3C(C)C)c3nc(-c4c(O)cccc4F)c(F)cc23)C(C)C1 (stereo not given) + CC(C)NCC(C(=O)N1CCN(c2ncnc3c2C(C)CC3O)CC1)c1ccc(Cl)cc1
Result: 27.5

Ask: # return recorded viability, T/C for entry C=CCn1c(=O)c2cnc(Nc3ccc(N4CCN(C)CC4)cc3)nc2n1-c1cccc(C(C)(C)O)n1 + CC(C)NCC(C(=O)N1CCN(c2ncnc3c2C(C)CC3O)CC1)c1ccc(Cl)cc1
Result: 10

====

tested on: DU-145 multicell spheroids with HUVEC/MSC, viability; assay: Anticancer human tumor DU-145 cell line growth inhibition [IpAb]; settings: second compound 0.1 µM; first compound 10 µM; active = viability on the fitted dose curve at most 10% of control; inactive = the rest;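 also: spheroids exposed to agents for seven days before measurement; percent of DMSO vehicle control viability so 100% = untreated level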
Pick one: active, inactive

Ask: Lab log entry: CC1(C)CCC(CN2CCN(c3ccc(C(=O)NS(=O)(=O)c4ccc(NCC5CCOCC5)c([N+](=O)[O-])c4)c(Oc4cnc5[nH]ccc5c4)c3)CC2)=C(c2ccc(Cl)cc2)C1 + CCN1CCN(Cc2ccc(Nc3ncc(F)c(-c4cc(F)c5nc(C)n(C(C)C)c5c4)n3)nc2)CC1 — outcome as called in the assay?
Result: inactive

Ask: Lab log entry: C=CC(=O)N1CCN(c2nc(=O)n(-c3c(C)ccnc3C(C)C)c3nc(-c4c(O)cccc4F)c(F)cc23)C(C)C1 (centres undefined) + CC(C)NCC(C(=O)N1CCN(c2ncnc3c2C(C)CC3O)CC1)c1ccc(Cl)cc1 — outcome as called in the assay?
Result: inactive

Ask: Lab log entry: C=CCn1c(=O)c2cnc(Nc3ccc(N4CCN(C)CC4)cc3)nc2n1-c1cccc(C(C)(C)O)n1 + CCN1CCN(Cc2ccc(Nc3ncc(F)c(-c4cc(F)c5nc(C)n(C(C)C)c5c4)n3)nc2)CC1 — outcome as called in the assay?
Result: active

Ask: Lab log entry: Cn1ncc(Cl)c1-c1cc(C(=O)NC(CN)Cc2cccc(F)c2)sc1Cl (centres undefined) + CC(C)NCC(C(=O)N1CCN(c2ncnc3c2C(C)CC3O)CC1)c1ccc(Cl)cc1 — outcome as called in the assay?
Result: active
